assay: Ocular tissue concentrations, 0.3% Compound-I Tris-based suspension twice daily 30 days; format: in vivo, Dutch-Belted rabbits; settings: Dutch-Belted, rabbit, central choroid, topical, 0.3 % w/v; 0.3% Tris Suspension, Twice Daily 30 days; read-out: Central Choroid [Compound I]
REPORTED_ENDPOINT: concentration at 1 h (nM)

[[record]]
compound = "Cl.NC(=O)c1c(OCc2c(F)cc(Br)cc2F)nsc1NC(=O)NCCCCN1CCCC1 [Compound-I, hydrochloride]"
reported_endpoint = "concentration at 1 h"
test_value = 319


====

Experiment: Ocular fluid and tissue concentrations, 0.4% Compound-I cyclodextrin solutions (Example 7, 24-day study)
Assay type: in vivo, Dutch-Belted rabbits
Details: Dutch-Belted, rabbit, central choroid, topical, 0.4 % (4 mg/mL), 0.4% Ophthalmic Solution (CAPTISOL), Twice Daily 24 days; read-out: Central Choroid [Compound I]
Method: The ocular solution of Compound-I comprising cyclodextrin was prepared and tested in different groups of animals.
REPORTED_ENDPOINT: concentration at 1 h (nM)

[[record]]
compound = "Cl.NC(=O)c1c(OCc2c(F)cc(Br)cc2F)nsc1NC(=O)NCCCCN1CCCC1 [Compound-I, hydrochloride]"
reported_endpoint = "concentration at 1 h"
test_value = 212

